- targetOrTestSystem: Corticotropin-releasing factor receptor 2/Corticotropin-releasing factor-binding protein (Homo sapiens, UniProt P24387+Q13324)
- Sequence (Q13324 whole entry): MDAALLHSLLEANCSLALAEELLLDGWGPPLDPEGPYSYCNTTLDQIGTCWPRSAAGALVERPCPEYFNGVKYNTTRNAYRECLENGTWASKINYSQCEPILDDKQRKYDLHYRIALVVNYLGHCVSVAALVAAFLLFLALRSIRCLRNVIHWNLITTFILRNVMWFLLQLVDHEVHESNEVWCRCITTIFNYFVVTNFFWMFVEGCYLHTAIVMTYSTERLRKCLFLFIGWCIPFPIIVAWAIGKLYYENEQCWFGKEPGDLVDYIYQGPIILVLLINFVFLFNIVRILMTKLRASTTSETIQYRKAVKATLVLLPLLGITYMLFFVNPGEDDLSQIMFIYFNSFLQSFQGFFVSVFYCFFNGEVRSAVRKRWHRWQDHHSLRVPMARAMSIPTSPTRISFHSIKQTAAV
- Sequence (P24387 whole entry): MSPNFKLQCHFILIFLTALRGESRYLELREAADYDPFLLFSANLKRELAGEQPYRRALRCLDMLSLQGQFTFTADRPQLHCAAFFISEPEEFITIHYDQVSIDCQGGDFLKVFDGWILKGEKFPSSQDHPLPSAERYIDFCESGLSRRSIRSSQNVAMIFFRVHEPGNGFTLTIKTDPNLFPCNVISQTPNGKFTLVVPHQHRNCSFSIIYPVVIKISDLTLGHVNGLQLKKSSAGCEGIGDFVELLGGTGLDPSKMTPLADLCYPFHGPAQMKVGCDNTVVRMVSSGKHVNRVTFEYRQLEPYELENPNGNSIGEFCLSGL
- experimentalProtocol: activators of CRF receptor 2 with binding protein – uHTS hits, confirmation (AID 602473)
- Assay type: functional
- experimentalContext: read-out: EC50_Mean
Active and inactive are the calls of the source. No stated cut-off is given here; in the data, actives have a measured EC50 and inactives only a lower limit.
Would you mind answering with one of these outcomes? TRUE (active), FALSE (inactive)

Inquiry: Can you look up the reported call for O=C(NCc1cc(C(F)(F)F)ccc1Cl)c1cccc2c1C(=O)c1ccc(N3CCC(Cc4ccccc4)CC3)cc1S2(=O)=O for me?
Reply text: TRUE

Inquiry: Entry O=C(c1ccccc1)c1nc2ccccc2nc1O : call = ?
Reply text: FALSE

Inquiry: Tell me the recorded outcome of this test for COc1cccc(NC(=O)C2CCCN(S(=O)(=O)c3ccc(-n4cnnn4)cc3)C2)c1 (stereo not given) .
Reply text: FALSE

Inquiry: Kindly provide the recorded test outcome for the following compound: CC(=O)Nc1ccc(OCC(O)CN2C(C)(C)CC(O)CC2(C)C)cc1 (stereo not given)
Reply text: FALSE

Inquiry: Name the outcome recorded for O=C(COC(=O)C1CCN(S(=O)(=O)c2ccc3c(c2)OCCO3)CC1)NC1CCS(=O)(=O)C1 (stereo not given) in the assay.
Reply text: FALSE
